Hello, the source for this data is PubChem BioAssay AID1259407, in case you need it.

system: CCRIS mutagenicity, Ames/micronucleus/aberration tests; assay: CCRIS mutagenicity studies; settings: Test System: AMES SALMONELLA TYPHIMURIUM; Strain/Indicator: TA98; Metabolic Activation: RAT LIVER S-9, AROCLOR 1254; Method: STANDARD PLATE
Calls of active or inactive are those of the source. No rule for the calls is given here.
Write down the outcome that applies. Available outcomes: yes (1) (active), no (0) (inactive)

Ask: Check the results log: what was the call for COC1=CC(=O)c2c(nc(C)c3c4c([nH]c23)CCCC4)C1=O ?
Reply: yes (1)

Ask: Check the results log: what was the call for Cc1cc([N+](=O)[O-])c(C)c2c1[nH]c1ccc(O)cc12 ?
Reply: no (0)

Ask: Check the results log: what was the call for O=S(=O)(O)c1ccc(N=Nc2c(O)ccc3cc(S(=O)(=O)O)ccc23)cc1 ?
Reply: no (0)

Ask: Check the results log: what was the call for C/C=C1\CC2C=CC1C2 (centres undefined) ?
Reply: no (0)

Ask: Check the results log: what was the call for Oc1c(Cl)c(Cl)c(Cl)c(Cl)c1Cl ?
Reply: no (0)

Ask: Check the results log: what was the call for [Cu+2].[O-]c1cccc2cccnc12.[O-]c1cccc2cccnc12 ?
Reply: no (0)

Ask: Check the results log: what was the call for Cc1cc(C)c(S(=O)(=O)O)cc1N=Nc1cc(S(=O)(=O)O)c2ccccc2c1O ?
Reply: no (0)

Ask: Check the results log: what was the call for Cc1cc([N+](=O)[O-])c(C)c2c1[nH]c1ccccc12 ?
Reply: yes (1)

Ask: Check the results log: what was the call for CC(C)[C@@H]1CC[C@@H](C)C[C@H]1O ?
Reply: no (0)

----------
system: CCRIS mutagenicity, Ames/micronucleus/aberration tests; test: CCRIS mutagenicity studies; conditions: Test System: AMES SALMONELLA TYPHIMURIUM; Strain/Indicator: TA98; Metabolic Activation: NONE; Method: SUSPENSION/PLATE
Calls of active or inactive are those of the source. No rule for the calls is given here.
experimentalEndpoint: mutagenic call

> print(dat)
                             smilesnotation                            targetorsystem       observedvalue
1  [Cl][Sn]([c]1ccccc1)([c]1ccccc1)[c]1ccccc1  CCRIS mutagenicity, Ames/micronucleus/aberration tests  inactive; negative
2  c1cc[c]([Sn]([c]2ccccc2)([c]2ccccc2)[c]2ccccc2)cc1  CCRIS mutagenicity, Ames/micronucleus/aberration tests  inactive; negative
3                 [CH3][Sn]([Cl])([Cl])[Cl]  CCRIS mutagenicity, Ames/micronucleus/aberration tests  inactive; negative
4      [Cl][Sn]([Cl])([c]1ccccc1)[c]1ccccc1  CCRIS mutagenicity, Ames/micronucleus/aberration tests  inactive; negative

----------
Tested on: CCRIS mutagenicity, Ames/micronucleus/aberration tests
Experiment: CCRIS mutagenicity studies
Conditions: Test System: MOUSE LYMPHOMA; Strain/Indicator: L5178Y (TK+/TK-); Metabolic Activation: NONE; Method: SUSPENSION/PLATE
Description: The CCRIS database contains chemical records with carcinogenicity, mutagenicity, tumor promotion, and tumor inhibition test results. It was developed by the National Cancer Institute (NCI). Data are derived from studies cited in primary journals, current awareness tools, NCI reports, and other sources. Test results have been reviewed by experts in carcinogenesis and mutagenesis. CCRIS provides historical information from the years 1985 - 2011. It is no longer updated. […]
Activity calls are given as the source filed them. The rule behind the calls is not given here.
experimentalEndpoint: mutagenic call

Completed entries (count: 7):
> print(dat)
                                 compound  experimentalendpoint       observedvalue
1                              CCc1ccccc1        mutagenic call    active; positive
2              Nc1ccc(O)c([N+](=O)[O-])c1        mutagenic call    active; positive
3                     CC(C)=CC(=O)C=C(C)C        mutagenic call  inactive; negative
4                             CC(C)CCON=O        mutagenic call    active; positive
5                           CN(C)c1ccccc1        mutagenic call    active; positive
6  COc1ccc(C(c2ccc(OC)cc2)C(Cl)(Cl)Cl)cc1        mutagenic call  inactive; negative
7                           c1ccc2occc2c1        mutagenic call    active; positive

// next entry
Observed mutagenic call on CCRIS mutagenicity, Ames/micronucleus/aberration tests, entry OCC1CO1 (centres undefined) , equals active; positive

----------
test system: CCRIS mutagenicity, Ames/micronucleus/aberration tests; test: CCRIS mutagenicity studies; details: Test System: AMES SALMONELLA TYPHIMURIUM; Strain/Indicator: TA98; Metabolic Activation: RAT, LIVER, S-9, AROCLOR 1254 (10 OR 30%); Method: PREINCUBATION
Active and inactive are the calls of the source. No rule for the calls is given here.
experimentalEndpoint: mutagenic call

Completed entries (count: 4):
> print(dat)
                        molecule                            targetorsystem  experimentalendpoint       observedvalue
1                    N#Cc1ccccc1  CCRIS mutagenicity, Ames/micronucleus/aberration tests        mutagenic call  inactive; negative
2                  CN(C)c1ccccc1  CCRIS mutagenicity, Ames/micronucleus/aberration tests        mutagenic call  inactive; negative
3                  [CH3][Hg][Cl]  CCRIS mutagenicity, Ames/micronucleus/aberration tests        mutagenic call  inactive; negative
4  Nc1cccc2c(=O)[nH][nH]c(=O)c12  CCRIS mutagenicity, Ames/micronucleus/aberration tests        mutagenic call  inactive; negative

Recorded mutagenic call (molecule [O]=[Mo](=[O])=[O] ): inactive; negative

Recorded mutagenic call (molecule C1OCOCO1 ): inactive; negative

----------
system: CCRIS mutagenicity, Ames/micronucleus/aberration tests; assay: CCRIS mutagenicity studies; details: Test System: Ames Salmonella typhimurium; Strain/Indicator: TA1535; Metabolic Activation: None; Method: Plate incorporation
The source made the active and inactive calls. No rule for the calls is given here.
experimentalEndpoint: mutagenic call

> print(dat)
                                   compound       observedvalue
1  CCCCOC(=O)[C@@H](C)Oc1ccc(Oc2ccc(C#N)cc2F)cc1  inactive; negative
2  CC1(C)C(C=C(Cl)Cl)C1C(=O)OC(C#N)c1ccc(F)c(Oc2ccccc2)c1 (stereo not given)  inactive; negative
3  C=C(C)CN(CC)c1c([N+](=O)[O-])cc(C(F)(F)F)cc1[N+](=O)[O-]  inactive; negative
4  CC1(c2ccc(Oc3ccccc3)cc2)OC(=O)N(Nc2ccccc2)C1=O (stereo not given)  inactive; negative

----------
test system: CCRIS mutagenicity, Ames/micronucleus/aberration tests; assay: CCRIS mutagenicity studies; conditions: Test System: AMES SALMONELLA TYPHIMURIUM; Strain/Indicator: TA1537; Metabolic Activation: RAT, LIVER, S-9, AROCLOR 1254; Method: PREINCUBATION
Activity calls are given as the source filed them. The rule behind the calls is not given here. Where a SMILES comes first, the peptide text is derived from it. [ ]: non-standard residue; d: D form. ξ: configuration not given here. Trp(1-OMe) = COn1cc(C[C@H](N)C(=O)O)c2ccccc21; Asu = N[C@@H](CCCCCC(=O)O)C(=O)O; Ile(3ξ) = CCC(C)[C@H](N)C(=O)O; dPip = O=C(O)[C@H]1CCCCN1
Write down the outcome that applies. Available outcomes: y (active), n (inactive)

Ask: Check the results log: what was the call for CCN(N=O)c1ccccc1 ?
Reply: n

Ask: Check the results log: what was the call for c1ccc(Oc2ccccc2)cc1 ?
Reply: n

Ask: Check the results log: what was the call for Cc1cccc(C)c1N ?
Reply: n

Ask: Check the results log: what was the call for Clc1cc(Cl)c(Cl)c(Cl)c1 ?
Reply: n

Ask: Check the results log: what was the call for Brc1ccccc1-c1ccccc1 ?
Reply: n

Ask: Check the results log: what was the call for CCC(C)[C@@H]1NC(=O)[C@H](Cc2cn(OC)c3ccccc23)NC(=O)[C@H](CCCCCC(=O)OC)NC(=O)[C@H]2CCCCN2C1=O (stereo partly drawn) (cyclo([Asu](OMe)[Trp(1-OMe)][Ile(3ξ)][dPip])) ?
Reply: n

Ask: Check the results log: what was the call for Oc1ccccc1-c1ccccc1 ?
Reply: n

Ask: Check the results log: what was the call for O=C1CCC(=O)O1 ?
Reply: n

Ask: Check the results log: what was the call for CN(C)c1ccccc1 ?
Reply: n

Ask: Check the results log: what was the call for OCCNCCO ?
Reply: n

Ask: Check the results log: what was the call for Clc1ccccc1Cl ?
Reply: n

Ask: Check the results log: what was the call for Nc1nc(=O)n([C@H]2C[C@H](O)[C@@H](CO)O2)cc1I ?
Reply: n

Ask: Check the results log: what was the call for OCC1CO1 (stereo not drawn) ?
Reply: y

Ask: Check the results log: what was the call for O=P(O)(O)O ?
Reply: n

Ask: Check the results log: what was the call for Clc1c(Cl)c(Cl)c2ccccc2c1Cl ?
Reply: n

Ask: Check the results log: what was the call for Brc1ccc(-c2ccccc2)cc1 ?
Reply: n

Ask: Check the results log: what was the call for O=c1[nH]c(=O)n([C@H]2C[C@H](O)[C@@H](CO)O2)cc1I ?
Reply: n

Ask: Check the results log: what was the call for Brc1cccc(-c2ccccc2)c1 ?
Reply: n

Ask: Check the results log: what was the call for NNc1ccccc1 ?
Reply: y

Ask: Check the results log: what was the call for Clc1cc(Cl)c(Cl)c(Cl)c1Cl ?
Reply: n

Ask: Check the results log: what was the call for N[C@@H](CCC(=O)NNc1ccc(CO)cc1)C(=O)O ?
Reply: n

Ask: Check the results log: what was the call for ClC1(Cl)C2(Cl)C3(Cl)C4(Cl)C(Cl)(Cl)C5(Cl)C3(Cl)C1(Cl)C5(Cl)C24Cl (stereo not drawn) ?
Reply: n

Ask: Check the results log: what was the call for CC1CCC(C(C)CS)CC1S (stereo not drawn) ?
Reply: n

Ask: Check the results log: what was the call for CCC(C)=O ?
Reply: n

Ask: Check the results log: what was the call for Oc1c(Cl)c(Cl)c(Cl)c(Cl)c1Cl ?
Reply: n

Ask: Check the results log: what was the call for c1ccc2occc2c1 ?
Reply: n

Ask: Check the results log: what was the call for CC1(C)S[C@@H]2[C@H](NC(=O)COc3ccccc3)C(=O)N2[C@H]1C(=O)O ?
Reply: n

Ask: Check the results log: what was the call for Nc1nc(=O)n([C@H]2C[C@H](O)[C@@H](CO)O2)cc1CCCl ?
Reply: n
